Parameter pKi, tested on UniProt:P00533, listed per item.
API: returns pKi as number; meaning -log10 of concentration in mol/L.

compound | system_under_test | value_kind | value_observed
C=CC(=O)Nc1cccc(-c2c(-c3ccc(N4CCN(C)CC4)cc3)[nH]c3ncnc(OCC(C)C)c23)c1 [Compound 19h] | UniProt:P00533 | pKi | 9.40

Tell me reported pKi for C=CC(=O)Nc1cccc(-c2c(-c3ccc(N4CCN(C)CC4)cc3)[nH]c3ncn(C(C)C)c(=O)c23)c1 [Compound 29g] , tested with UniProt:P00533.
8.00

* * *

molecular target: EGFR-wt (Homo sapiens, UniProt P00533); test: HTRF KinEASE-TK activity-based assay, EGFR-wt; conditions: EGFR HTRF IC50 wt, ATP at Km (9.5 µM), 30 min preincubation; mean ± SD of three independent measurements in duplicates
Sequence (P00533 25-1210): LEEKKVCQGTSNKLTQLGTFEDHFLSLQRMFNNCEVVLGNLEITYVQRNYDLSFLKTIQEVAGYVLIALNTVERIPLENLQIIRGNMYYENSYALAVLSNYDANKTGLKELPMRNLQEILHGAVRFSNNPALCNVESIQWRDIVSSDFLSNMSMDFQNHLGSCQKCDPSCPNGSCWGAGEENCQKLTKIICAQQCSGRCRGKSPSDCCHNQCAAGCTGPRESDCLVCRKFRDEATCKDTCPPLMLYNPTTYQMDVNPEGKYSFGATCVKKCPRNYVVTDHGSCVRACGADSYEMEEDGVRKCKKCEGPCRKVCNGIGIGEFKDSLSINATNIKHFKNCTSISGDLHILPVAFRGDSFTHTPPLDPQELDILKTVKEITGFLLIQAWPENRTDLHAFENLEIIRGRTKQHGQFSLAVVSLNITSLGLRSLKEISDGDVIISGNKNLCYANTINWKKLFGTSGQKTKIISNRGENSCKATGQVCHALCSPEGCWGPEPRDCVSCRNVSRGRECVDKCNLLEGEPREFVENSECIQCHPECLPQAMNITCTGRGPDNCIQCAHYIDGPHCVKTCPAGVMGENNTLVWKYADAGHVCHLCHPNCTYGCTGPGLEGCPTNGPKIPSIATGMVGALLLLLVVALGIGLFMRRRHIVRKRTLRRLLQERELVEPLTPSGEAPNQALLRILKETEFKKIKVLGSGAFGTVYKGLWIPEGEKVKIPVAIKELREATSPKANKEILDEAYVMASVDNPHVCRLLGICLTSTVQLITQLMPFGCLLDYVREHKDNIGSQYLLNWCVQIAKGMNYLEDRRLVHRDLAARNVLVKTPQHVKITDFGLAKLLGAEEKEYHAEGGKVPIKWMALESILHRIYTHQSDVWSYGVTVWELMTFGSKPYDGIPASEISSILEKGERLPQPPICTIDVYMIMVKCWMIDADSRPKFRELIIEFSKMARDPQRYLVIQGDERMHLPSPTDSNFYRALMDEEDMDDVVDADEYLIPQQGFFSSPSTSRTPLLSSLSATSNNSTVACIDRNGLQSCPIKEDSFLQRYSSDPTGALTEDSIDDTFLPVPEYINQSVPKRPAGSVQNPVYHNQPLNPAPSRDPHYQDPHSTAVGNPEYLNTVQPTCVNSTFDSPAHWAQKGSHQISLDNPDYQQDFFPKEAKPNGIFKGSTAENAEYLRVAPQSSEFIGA
Classes by IC50: class A: < 1 nM; class B: ≥ 1 nM and < 5 nM; class C: ≥ 5 nM

Answered examples (2):
compound | category_label
C=CC(=O)Nc1cccc(-c2c[nH]c3ncnc(OC)c23)c1 [Compound 9] | class C
C=CC(=O)Nc1cccc(-c2c(-c3ccc(N4CCN(C)CC4)cc3)[nH]c3ncnc(OCCCC)c23)c1 [Compound 19d] | class A

For this compound, which bin applies? CCC(=O)Nc1cccc(-c2c(-c3ccc(CN4CCN(C)CC4)cc3)[nH]c3ncnc(OC)c23)c1 [Compound 17b]
class C

For this compound, which bin applies? C=CC(=O)Nc1cc(-c2c(-c3ccc(N4CCN(C)CC4)cc3)[nH]c3ncnc(OC)c23)ccc1OC(C)COC (stereo not drawn) [Compound 20b]
class A

For this compound, which bin applies? C=CC(=O)Nc1cc(-c2c(-c3ccc(N4CCN(C)CC4)cc3)[nH]c3ncnc(OC)c23)ccc1OCCOC [Compound 20a]
class A

For this compound, which bin applies? C=CC(=O)Nc1cccc(-c2c(-c3ccc(N4CCN(C)CC4)cc3)[nH]c3ncnc(OC)c23)c1 [Compound 19a]
class A

For this compound, which bin applies? C=CC(=O)Nc1cccc(-c2c(-c3ccc(N4CCN(C)CC4)cc3)[nH]c3ncn(CC4CC4)c(=O)c23)c1 [Compound 29k]
class B

Reference source: paper PMC6886544
